biological target: Acetylcholinesterase (Homo sapiens, UniProt P22303)
Sequence (P22303 whole entry): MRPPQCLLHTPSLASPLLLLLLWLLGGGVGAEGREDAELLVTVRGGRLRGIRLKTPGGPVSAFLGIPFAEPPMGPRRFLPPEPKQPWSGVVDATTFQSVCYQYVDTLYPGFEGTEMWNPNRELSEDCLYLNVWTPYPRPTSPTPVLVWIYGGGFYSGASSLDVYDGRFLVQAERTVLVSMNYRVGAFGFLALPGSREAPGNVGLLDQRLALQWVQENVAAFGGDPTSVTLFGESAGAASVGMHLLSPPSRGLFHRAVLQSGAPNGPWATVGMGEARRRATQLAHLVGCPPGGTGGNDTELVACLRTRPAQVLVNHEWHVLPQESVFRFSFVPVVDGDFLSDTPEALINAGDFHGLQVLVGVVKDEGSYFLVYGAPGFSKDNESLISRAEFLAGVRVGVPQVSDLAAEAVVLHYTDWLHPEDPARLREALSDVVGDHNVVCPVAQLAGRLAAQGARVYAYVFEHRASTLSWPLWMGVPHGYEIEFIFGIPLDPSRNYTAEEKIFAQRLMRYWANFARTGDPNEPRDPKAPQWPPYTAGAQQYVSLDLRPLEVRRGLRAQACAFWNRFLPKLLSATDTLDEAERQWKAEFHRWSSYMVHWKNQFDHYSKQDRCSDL
MEASURED PARAMETER: Ki (nM)
Answers are plain numbers, in nM.

*Q* Annotate the compound Cc1cccc2c3c(ccc12)C1=C(C(=O)C3=O)[C@@H](C)CO1 [DIHYDROTANSHINONE I] with its measured Ki.
*A* 600

====

target: Acetylcholinesterase (Homo sapiens, UniProt P22303)
Please go through the items and note down their IC50.

Use the examples below as a reference point.
* Cc1cccc2c3c(ccc12)C1=C(C(=O)C3=O)[C@@H](C)CO1 [DIHYDROTANSHINONE I] | 1 µM
* Cc1coc2c1C(=O)C(=O)c1c-2ccc2c(C)cccc12 [TANSHINONE I] | > 50 µM

// next item, IC50 requested
*Q* Fetch value of IC50 on Acetylcholinesterase (Homo sapiens, UniProt P22303) for Cc1coc2c1C(=O)C(=O)c1c-2ccc2c1CCCC2(C)C [TANSHINONE IIA] .
*A* > 140 µM

Every entry's value here was drawn from ChEMBL document CHEMBL3091358.
